Origin of values: ChEMBL document CHEMBL1759985

Tested on: 5637
assay-details: Cytotoxicity against human 5637 cells assessed after 92 hrs by microtiter assay
Format: functional, cell-based
conditions-used: Homo sapiens, 5637, 92 h
Each record here notes measured IC50.

{"columns": ["compound-structure", "target-or-test-system", "assay-metric", "result"],
 "data": [
  ["COC(=O)c1ccc(-c2c3cccc(C)c3nc3c2[nH]c2c(C)cccc23)cc1", 5637, "IC50", "> 20 µM"]
]}

### Prompt Report IC50 for COc1cccc2c(-c3ccc(C(=O)NCCN(C)C)cc3)c3[nH]c4c(OC)cccc4c3nc12 please.
### Response 2.1 µM

### Prompt Repeat with COC(=O)c1ccc(-c2c3cccc(OC)c3nc3c2[nH]c2c(OC)cccc23)cc1
### Response 11 µM

### Prompt Repeat with Cc1cccc2c(-c3ccc(C(=O)NCCN(C)C)cc3)c3[nH]c4c(C)cccc4c3nc12
### Response 3.2 µM
